Data provenance: patent US20230044787A1

TESTED SYSTEM: Lp-PLA2 (Homo sapiens, UniProt Q13093)
Construct: aliquoted and thawed 40 μL of pooled human plasma was previously added; from tissue; host or cells: pooled human plasma
Sequence (Q13093 22-441): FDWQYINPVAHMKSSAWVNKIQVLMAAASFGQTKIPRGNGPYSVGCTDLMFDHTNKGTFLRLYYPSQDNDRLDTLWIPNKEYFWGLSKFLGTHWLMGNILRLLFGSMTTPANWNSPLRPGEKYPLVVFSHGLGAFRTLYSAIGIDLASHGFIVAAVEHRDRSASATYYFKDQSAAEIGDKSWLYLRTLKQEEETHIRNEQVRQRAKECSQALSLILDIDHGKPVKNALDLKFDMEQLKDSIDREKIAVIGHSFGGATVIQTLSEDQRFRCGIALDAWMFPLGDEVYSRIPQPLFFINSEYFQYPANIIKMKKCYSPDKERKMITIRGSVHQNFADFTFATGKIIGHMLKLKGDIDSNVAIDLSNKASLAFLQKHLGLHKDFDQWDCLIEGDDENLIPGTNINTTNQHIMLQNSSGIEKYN
TEST DETAILS: Lipoprotein-associated phospholipase A2 (Lp-PLA2) human plasma assay (Thio-PAF assay)
Type: biochemical
TEST SETTINGS: Lp-PLA2 human plasma assay (Thio-PAF), pooled human plasma, 30-min pre-incubation at room temperature
EXPERIMENTAL READOUT: IC50

[
  {
    "COMPOUND": "CC(C)c1c(OCc2cc(F)c(Oc3ccnc(C(F)(F)F)c3)c(F)c2)nc(=O)n2c1N1C[C@@H]3C[C@]1(CO3)C2 [Example 107]",
    "TESTED SYSTEM": "Lp-PLA2 (Homo sapiens, UniProt Q13093)",
    "IC50": "9.5 nM"
  }
]

INPUT: Recorded IC50 for O=c1nc(OCc2cc(F)c(Oc3ccc(Cl)c(F)c3)c(F)c2)cc2n1C[C@]13CO[C@H](CN21)C3 [Example 143] with Lp-PLA2 (Homo sapiens, UniProt Q13093), please?
OUTPUT: 2.5 nM

INPUT: Recorded IC50 for O=c1nc(OCc2cc(F)c(Oc3ccnc(C(F)(F)F)c3)c(F)c2)cc2n1C[C@]13CC[C@H](CN21)C3 [Example 123] with Lp-PLA2 (Homo sapiens, UniProt Q13093), please?
OUTPUT: 4.4 nM

INPUT: Recorded IC50 for O=c1nc(OCc2ccc(Oc3ccnc(C(F)(F)F)c3)c(F)c2)cc2n1C[C@@]13C[C@@H](CN21)N(C1CCC1)C3 [Example 177] with Lp-PLA2 (Homo sapiens, UniProt Q13093), please?
OUTPUT: 5.5 nM

INPUT: Recorded IC50 for CC12COCCN1c1cc(OCc3ccc(Oc4cccc(C(F)(F)F)c4)c(C#N)c3)nc(=O)n1C2 (stereo not shown) [Example 85] with Lp-PLA2 (Homo sapiens, UniProt Q13093), please?
OUTPUT: 6.7 nM

INPUT: Recorded IC50 for COc1c(OCc2ccc(F)c(C#N)c2)nc(=O)n2c1N1C[C@@H]3C[C@]1(CO3)C2 [Example 142] with Lp-PLA2 (Homo sapiens, UniProt Q13093), please?
OUTPUT: 3.6 nM

INPUT: Recorded IC50 for Cc1c(OCc2ccc(Oc3ccnc(C(F)(F)F)c3)cc2)nc(=O)n2c1N1C[C@@H]3C[C@]1(CO3)C2 [Example 108] with Lp-PLA2 (Homo sapiens, UniProt Q13093), please?
OUTPUT: 5 nM
